The following molecules are shown together with reported pIC50 values.
Target protein (sequence): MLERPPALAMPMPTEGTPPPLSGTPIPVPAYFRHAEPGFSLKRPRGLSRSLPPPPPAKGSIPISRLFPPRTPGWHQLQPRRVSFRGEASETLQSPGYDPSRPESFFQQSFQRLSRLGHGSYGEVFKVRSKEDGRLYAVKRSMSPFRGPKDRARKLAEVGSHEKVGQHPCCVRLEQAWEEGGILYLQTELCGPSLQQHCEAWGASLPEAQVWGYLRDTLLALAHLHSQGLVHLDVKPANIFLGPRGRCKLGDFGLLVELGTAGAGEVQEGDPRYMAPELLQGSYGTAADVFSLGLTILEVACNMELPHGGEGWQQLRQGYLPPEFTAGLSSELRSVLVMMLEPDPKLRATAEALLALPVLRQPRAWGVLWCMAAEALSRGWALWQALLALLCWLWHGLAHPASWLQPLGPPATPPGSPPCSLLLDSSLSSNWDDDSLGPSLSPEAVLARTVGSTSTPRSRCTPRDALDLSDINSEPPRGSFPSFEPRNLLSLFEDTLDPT
pIC50: −log10 of the molar value.

Cc1ccc(O)c(C)c1-c1c(N)c(C(N)=O)nc2c(C)cccc12 (single isomer, unassigned) [Compound 33] ... 5.30 to 6.00
Cc1ccc2nc(C(N)=O)c(N)c(-c3cccc(O)c3C)c2c1 (atropisomer, axis not shown) [Compound 149] ... 6.30 to 7.30
CCn1ccc2cc(C(N)=O)c(N)c(-c3cccc(O)c3C)c2c1=O (atropisomer, axis not shown) [Compound 328] ... ≤ 5.30
NC(=O)c1nc2cccnc2c(-c2cccc3[nH]cnc23)c1N ... ≤ 5.30
COc1cnc(F)c(-c2c(N)c(C(N)=O)nc3cccnc23)c1 ... 5.30 to 6.00
Cc1ccc(O)c(C)c1-c1c(N)c(C(N)=O)nc2c(C(F)(F)F)cccc12 (single isomer, unassigned) [Compound 30] ... 6.30 to 7.30

Query (molecule): `Cc1cc(O)c(C)c(-c2c(N)c(C(N)=O)nc3cccnc23)c1` ; field requested: pIC50
5.30 to 6.00

Request: Cc1c(Cl)cncc1C1=c2ncccc2=NC(C(N)=O)C1N (stereo not shown) [Compound 239]
≤ 5.30

Request: `Cc1c(O)cccc1-c1c(N)c(C(N)=O)cc2ccncc12`
6.30 to 7.30

Request: `Cc1ccc(O)c(C)c1-c1c(N)c(C(N)=O)cc2cccnc12`
6.30 to 7.30

Request: `Cc1ccc(O)c(C)c1-c1c(N)c(C(N)=O)nc2ccc(Cl)cc12`
6.30 to 7.30

Request: `Cc1c(O)cccc1-c1cc(C(N)=O)nc2ccccc12`
5.30 to 6.00

Request: CCn1ccc2cc(C(N)=O)c(N)c(-c3cccc(O)c3C)c2c1=O [Compound 324]
6.30 to 7.30

Request: `Cc1c(O)cccc1-c1ccnc2nc(C(N)=O)c(N)cc12`
5.30 to 6.00

Request: `Cc1c(O)cccc1-c1c(N)c(C(N)=O)nc2cc(C(F)(F)F)cnc12`
> 7.30

Request: Cc1c(F)cncc1C1=c2ncccc2=NC(C(N)=O)C1N (stereo not shown)
> 7.30

Request: `CC1=C(c2c(N)c(C(N)=O)nc3cccnc23)CCC[C@H]1O`
≤ 5.30

Request: COc1ccc2nc(C(N)=O)c(N)c(-c3cccc(O)c3C)c2n1 (atropisomer, axis not shown)
> 7.30

Request: `Cc1c(O)cncc1-c1c(N)c(C(N)=O)cc2nccnc12`
6.30 to 7.30

Request: Cc1cnc2c(-c3cccc(O)c3C)c(N)c(C(N)=O)cc2n1 (atropisomer, axis not shown) [Compound 201]
≤ 5.30

Request: Cc1c(O)cccc1-c1c(N)c(C(N)=O)cc2nc(C(F)(F)F)c(O)nc12 (atropisomer, axis not shown)
6.30 to 7.30

Request: `NC(=O)c1nc2cccnc2c(-c2cncc3sccc23)c1N`
6.30 to 7.30

Request: `COc1cncc(-c2c(N)c(C(N)=O)cc3nccnc23)c1C`
6.30 to 7.30

Request: NC(=O)c1cc2nccnc2c(-c2cccc(O)c2Cl)c1N (single isomer, unassigned) [Compound 105]
> 7.30

Request: `NC(=O)c1nc2cccnc2c(-c2cccc3occc23)c1N`
≤ 5.30

Request: `Cc1ncncc1-c1c(N)c(C(N)=O)nc2cccnc12`
5.30 to 6.00

Request: `Cc1c(O)cccc1-c1c(N)c(C(N)=O)cc2c1ncc(=O)n2C`
5.30 to 6.00

Request: `NC(=O)c1nc2cccnc2c(-c2cnc(N)cc2C(F)(F)F)c1N`
≤ 5.30
